molecular target: Cannabinoid receptor (Homo sapiens) (UniProt P34972+P21554); experiment: Ratio of inhibition against Cannabinoid receptor 1 and Cannabinoid receptor 2; type: protein assay
Sequence (P21554 whole entry, looked up): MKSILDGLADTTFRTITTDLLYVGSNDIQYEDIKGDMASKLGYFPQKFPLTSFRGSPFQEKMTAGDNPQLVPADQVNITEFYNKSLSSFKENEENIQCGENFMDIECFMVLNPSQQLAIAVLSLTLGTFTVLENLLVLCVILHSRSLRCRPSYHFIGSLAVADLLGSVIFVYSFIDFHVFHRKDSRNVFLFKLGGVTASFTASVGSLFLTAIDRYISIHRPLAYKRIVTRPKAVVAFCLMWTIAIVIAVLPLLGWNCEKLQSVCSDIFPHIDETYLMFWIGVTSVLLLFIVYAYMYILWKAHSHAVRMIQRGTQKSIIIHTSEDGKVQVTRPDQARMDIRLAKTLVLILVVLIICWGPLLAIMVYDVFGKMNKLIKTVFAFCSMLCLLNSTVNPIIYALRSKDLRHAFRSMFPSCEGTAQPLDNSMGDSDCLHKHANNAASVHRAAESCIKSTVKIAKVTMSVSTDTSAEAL
Sequence (P34972 whole entry, looked up): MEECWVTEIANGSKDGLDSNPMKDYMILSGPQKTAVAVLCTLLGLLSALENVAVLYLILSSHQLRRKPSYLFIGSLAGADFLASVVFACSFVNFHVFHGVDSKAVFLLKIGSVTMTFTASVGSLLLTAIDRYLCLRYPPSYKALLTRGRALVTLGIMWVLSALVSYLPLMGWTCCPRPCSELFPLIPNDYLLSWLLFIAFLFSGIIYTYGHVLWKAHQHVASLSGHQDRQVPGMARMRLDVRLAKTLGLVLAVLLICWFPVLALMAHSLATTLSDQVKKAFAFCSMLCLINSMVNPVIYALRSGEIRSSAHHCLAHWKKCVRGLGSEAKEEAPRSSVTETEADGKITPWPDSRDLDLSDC
Measured Property: Selectivity

[
  {
    "Test Smiles": "COc1ccc(S(=O)(=O)c2ccc([C@H](C)NS(C)(=O)=O)cc2)c(S(=O)(=O)c2ccc(Cl)cc2)c1",
    "Measured Property": "Selectivity",
    "Observed Result": 1150
  },
  {
    "Test Smiles": "C[C@H](NS(C)(=O)=O)c1ccc(Cc2ccc(OC(F)(F)F)cc2S(=O)(=O)c2cccc(C(F)(F)F)c2)cc1",
    "Measured Property": "Selectivity",
    "Observed Result": 27
  },
  {
    "Test Smiles": "C[C@H](NS(C)(=O)=O)c1ccc(S(=O)(=O)c2ccccc2S(=O)(=O)c2ccccc2F)cc1",
    "Measured Property": "Selectivity",
    "Observed Result": 1450
  },
  {
    "Test Smiles": "C[C@H](NS(C)(=O)=O)c1ccc(S(=O)(=O)c2ccc(Cl)cc2C(=O)c2ccc(Cl)cc2)cc1",
    "Measured Property": "Selectivity",
    "Observed Result": 284
  }
]
